Test System: PAR1 (Homo sapiens (Human))
Assay Info: Par-1 FLIPR assay (calcium, HEK 293 cells, PAR1 activating peptide)
Experimental Setup: PAR1 selective receptor-activating peptide at 80% activation
pIC50: −log10 of the molar value.
Quantity Measured: pIC50

(1) C[C@H]1OC(=O)[C@]2(NC(=O)c3ccc(C#N)cc3)CC(F)(F)[C@@H](C)[C@H](/C=C/c3ccc(-c4ccccc4C#N)cn3)[C@H]12
(2) CC(=O)N[C@@]12CC(F)(F)[C@@H](C)[C@H](/C=C/c3ccc(-c4ccccc4C#N)cn3)[C@@H]1[C@@H](C)OC2=O
Name the one with the greater pIC50 value, either 1 or 2 as given. Label of pick, please.
1

* * *

Test System: PAR1 (Homo sapiens (Human), UniProt P25116)
Sequence (P25116 22-425): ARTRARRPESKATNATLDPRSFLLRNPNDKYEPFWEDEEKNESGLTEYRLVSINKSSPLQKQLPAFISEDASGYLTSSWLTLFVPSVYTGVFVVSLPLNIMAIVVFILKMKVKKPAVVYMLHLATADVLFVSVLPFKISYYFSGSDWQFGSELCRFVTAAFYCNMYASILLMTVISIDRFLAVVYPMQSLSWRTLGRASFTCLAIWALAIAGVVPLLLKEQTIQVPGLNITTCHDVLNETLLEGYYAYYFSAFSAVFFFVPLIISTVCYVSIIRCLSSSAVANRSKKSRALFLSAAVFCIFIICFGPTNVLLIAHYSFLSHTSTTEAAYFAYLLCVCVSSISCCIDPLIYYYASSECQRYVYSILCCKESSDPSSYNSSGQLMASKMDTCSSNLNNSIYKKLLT
Assay Info: Par-1 FLIPR assay (calcium, HEK 293 cells, PAR1 activating peptide)
Experimental Setup: PAR1 selective receptor-activating peptide at 80% activation
pIC50: −log10 of the molar value.
Quantity Measured: pIC50

(1) C[C@H]1OC(=O)[C@]2(C3(O)CNC3)CC(F)(F)[C@@H](C)[C@H](/C=C/c3ccc(-c4ccccc4C#N)cn3)[C@H]12
(2) C[C@H]1OC(=O)[C@]2(NC(=O)c3ccccc3)CC(F)(F)[C@@H](C)[C@H](/C=C/c3ccc(-c4ccccc4C#N)cn3)[C@H]12
(3) C[C@H]1OC(=O)[C@]2(NC3CCC3)CC(F)(F)[C@@H](C)[C@H](/C=C/c3ccc(-c4ccccc4C#N)cn3)[C@H]12
(4) C[C@H]1OC(=O)[C@]2(C(O)c3nccs3)CC(F)(F)[C@@H](C)[C@H](/C=C/c3ccc(-c4ccccc4C#N)cn3)[C@H]12 (stereo partly drawn) [Example 21b]
(5) C[C@H]1OC(=O)[C@]2(O)CC(F)(F)[C@@H](C)[C@H](/C=C/c3ccc(-c4cccc(F)c4)cn3)[C@H]12
Order the above molecules by increasing pIC50. To answer, write out the labels according to the requested order.
1, 5, 3, 2, 4
(1: 7.39, 5: 8.09, 3: 8.39, 2: 8.64, 4: 8.92)

(P) Cc1oncc1C(=O)N[C@@]12CC(F)(F)[C@@H](C)[C@H](/C=C/c3ccc(-c4ccccc4C#N)cn3)[C@@H]1[C@@H](C)OC2=O
(Q) C[C@H]1OC(=O)[C@]2(NC(=O)C3CC3)CC(F)(F)[C@@H](C)[C@H](/C=C/c3ccc(-c4ccccc4C#N)cn3)[C@H]12
Just tell me: smaller pIC50 value, P or Q ? Label of pick, please.
P

* * *

Test System: PAR1 (Homo sapiens (Human))
Assay Info: Par-1 FLIPR assay (calcium, HEK 293 cells, PAR1 activating peptide)
Experimental Setup: PAR1 selective receptor-activating peptide at 80% activation
pIC50: −log10 of the molar value.
Quantity Measured: pIC50

(1) C[C@H]1OC(=O)[C@]2(NCC(O)CCl)CC(F)(F)[C@@H](C)[C@H](/C=C/c3ccc(-c4ccccc4C#N)cn3)[C@H]12 (stereo partly drawn)
(2) C[C@H]1OC(=O)[C@]2(NCC(C)(C)C)CC(F)(F)[C@@H](C)[C@H](/C=C/c3ccc(-c4ccccc4C#N)cn3)[C@H]12
Name the one with the greater pIC50 value, either 1 or 2 as given. Label of pick, please.
1
